# test.method.notes: Solubility of ACP in surfactant solutions
# Format: physicochemical
# measurement.context: aqueous surfactant solution (PVP K30), aqueous with cosolvent or surfactant or cyclodextrin, Polyvinyl Pyrrolidone (PVP)- K30 2 % w/v; read-out: ACP solubility
measured.attribute: solubility (µg/mL)
Form entry: value (µg/mL) — number only.

**Query** Which solubility value belongs to CC#CC(=O)N1CCC[C@H]1c1nc(-c2ccc(C(=O)Nc3ccccn3)cc2)c2c(N)nccn12 ?
**Result** 2.27

* * *

# test.method.notes: Solubility of ACP in surfactant solutions
# Format: physicochemical
# measurement.context: aqueous surfactant solution (polyvinyl alcohol), aqueous with cosolvent or surfactant or cyclodextrin, Polyvinyl Alcohol (PVA) 2 % w/v; read-out: ACP solubility
measured.attribute: solubility (µg/mL)
Form entry: value (µg/mL) — number only.

**Query** Which solubility value belongs to CC#CC(=O)N1CCC[C@H]1c1nc(-c2ccc(C(=O)Nc3ccccn3)cc2)c2c(N)nccn12 ?
**Result** 0.109
